Please go through the items and note down their EC50 (read off the curve).
Target: human DR5 (human)
Experiment: ELISA: human DR5 coated on the plate (10 ng/ml), antibody titrated, anti-human Fc-HRP, TMB, absorbance at 450 nm
Response body: numeric value in mg/L, unit text excluded.

// lookup EC50 (read off the curve) for DA23 (antibody, V domains shown) VH: EVQLVESGGGLVQPGGSLRLSCAASGFTFSSFNMLWVRQAPGKGLEWVAGIGKSDRYTGYGSAVKGRFTISRDDSKSTVYLQMNSLRAEDTAVYYCVRDAGSPCGKGGWTGACIDTWGQGTLVTVSS VL: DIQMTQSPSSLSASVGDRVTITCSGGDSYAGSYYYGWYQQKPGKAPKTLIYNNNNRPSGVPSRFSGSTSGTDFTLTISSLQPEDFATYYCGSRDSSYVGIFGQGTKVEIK
0.01

Would you kindly share the measured EC50 (read off the curve) for DA22 (antibody, V domains shown) VH: EVQLVESGGGLVQPGGSLRLSCAASGFTFSSFNMLWVRQAPGKGLEWVAGIGKSDRYTGYGSAVKGRFTISRDDSKSTVYLQMNSLRAEDTAVYYCVRDAGSPCGSGGWTGACIDTWGQGTLVTVSS VL: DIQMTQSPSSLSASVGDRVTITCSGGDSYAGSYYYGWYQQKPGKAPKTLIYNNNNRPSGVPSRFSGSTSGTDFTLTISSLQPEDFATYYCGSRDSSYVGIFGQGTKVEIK ?
0.02

Fill blank: measured EC50 (read off the curve) of the binder DA9 (antibody, V domains shown) VH: EVQLVESGGGLVQPGGSLRLSCAASGFTFSSFNMLWVRQAPGKGLEWVAGIGKSDRYTGYGSAVKGRFTISRDDSKSTLYLQMNSLRAEDTAVYYCVRDAGSGCGSGGWTGACIDTWGQGTLVTVSS VL: DIQMTQSPSSLSASVGDRVTITCSGGDSYAGSYYYGWYQQKPGKAPKTLIYNNNNRPSGVPSRFSGSRSGTDFTLTISSLQPEDFATYYCGSRDSSYVGIFGQGTKVEIK is ____.
0.02

EC50 (read off the curve) lookup needed for DA8 (antibody, V domains shown) VH: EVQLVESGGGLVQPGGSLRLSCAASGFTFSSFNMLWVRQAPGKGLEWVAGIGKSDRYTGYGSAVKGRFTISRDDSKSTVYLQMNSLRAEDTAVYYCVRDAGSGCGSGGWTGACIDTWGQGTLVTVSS VL: DIQMTQSPSSLSASVGDRVTITCSGGDSYAGSYYYGWYQQKPGKAPKTLIYNNNNRPSGVPSRFSGSGSGTDFTLTISSLQPEDFATYYCGSRDSSYVGIFGQGTKVEIK , thanks.
0.02

Quick check: EC50 (read off the curve) of DA28 (antibody, V domains shown) VH: AVTLDESGGGLQTPGGGLSLVCKGSGFTFSSFNMLWVRQAPGKGLEWVAGIGKSDRYTGYGSAVKGRATISRDDGQSTARLQLNNLRAEDTGTYYCVKDAGSGCGSGGWTGACIDTWGHGTEVIVSS VL: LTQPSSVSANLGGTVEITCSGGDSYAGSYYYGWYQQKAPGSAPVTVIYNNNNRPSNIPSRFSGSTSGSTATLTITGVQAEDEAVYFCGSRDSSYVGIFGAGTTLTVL ?
0.02

Using the record for DA31 (antibody, V domains shown) VH: AVTLDESGGGLQTPGGGLSLVCKGSGFTFSSFNMLWVRQAPGKGLEWVAGIGKSDRYTGYGSAVKGRATISRDDGQSTARLQMNSLRAEDTGTYYCVKDAGSGCGSGGWTGACIDTWGHGTEVIVSS VL: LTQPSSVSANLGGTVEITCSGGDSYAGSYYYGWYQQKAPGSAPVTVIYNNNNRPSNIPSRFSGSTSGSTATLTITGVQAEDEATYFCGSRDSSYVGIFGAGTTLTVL , report its EC50 (read off the curve).
0.02

Can you look up the measured EC50 (read off the curve) of DA33 (antibody, V domains shown) VH: AVTLDESGGGLQTPGGGLSLVCKGSGFTFSSFNMLWVRQAPGKGLEWVAGIGKSDRYTGYGSAVKGRATISRDDGQSTARLQLNNLRAEDTAVYYCVKDAGSGCGSGGWTGACIDTWGHGTEVIVSS VL: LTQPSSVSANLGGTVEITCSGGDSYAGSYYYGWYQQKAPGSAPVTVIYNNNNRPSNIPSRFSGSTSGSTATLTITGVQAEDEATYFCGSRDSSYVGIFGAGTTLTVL for me?
0.02

Consider the binder shown here: D0 (antibody, V domains shown) VH: AVTLDESGGGLQTPGGGLSLVCKGSGFTFSSFNMLWVRQAPGKGLEWVAGIGKSDRYTGYGSAVKGRATISRDDGQSTVRLQLNNLRAEDTGTYYCVKDAGSGCGSGGWTGACIDTWGHGTEVIVSS VL: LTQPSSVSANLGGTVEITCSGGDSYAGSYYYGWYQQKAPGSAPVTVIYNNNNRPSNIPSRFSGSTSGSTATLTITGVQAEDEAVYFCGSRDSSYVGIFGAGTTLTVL What is its recorded EC50 (read off the curve)?
0.006

Given the entry DA18 (antibody, V domains shown) VH: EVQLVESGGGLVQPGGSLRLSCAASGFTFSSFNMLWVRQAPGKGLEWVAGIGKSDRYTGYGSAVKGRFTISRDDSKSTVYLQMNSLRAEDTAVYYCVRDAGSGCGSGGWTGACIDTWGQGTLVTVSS VL: DIQMTQSPSSLSASVGDRVTITCSGGDSYAGSYYYGWYQQKPGKAPKTLIYNNNNRPSGVPSRFSGSRSGTDFTLTISSLQPEDFATYYCGSRDSDGGGRFGQGTKVEIK , report its measured EC50 (read off the curve).
0.03

What value of EC50 (read off the curve) has been recorded for this entry: DA29 (antibody, V domains shown) VH: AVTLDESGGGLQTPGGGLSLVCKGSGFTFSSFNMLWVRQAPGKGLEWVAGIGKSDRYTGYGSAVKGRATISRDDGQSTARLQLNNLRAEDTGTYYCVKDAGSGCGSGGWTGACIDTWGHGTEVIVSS VL: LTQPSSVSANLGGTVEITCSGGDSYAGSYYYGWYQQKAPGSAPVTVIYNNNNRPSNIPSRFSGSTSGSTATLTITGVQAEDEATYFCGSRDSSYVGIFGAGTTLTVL
0.01
